target: MAPK8 (human) (UniProt P45983); test: radiometric filter-binding kinase assay, Kinase HotSpot; settings: compound 0.5 µM; ATP 10 µM
Sequence (P45983 whole entry, looked up): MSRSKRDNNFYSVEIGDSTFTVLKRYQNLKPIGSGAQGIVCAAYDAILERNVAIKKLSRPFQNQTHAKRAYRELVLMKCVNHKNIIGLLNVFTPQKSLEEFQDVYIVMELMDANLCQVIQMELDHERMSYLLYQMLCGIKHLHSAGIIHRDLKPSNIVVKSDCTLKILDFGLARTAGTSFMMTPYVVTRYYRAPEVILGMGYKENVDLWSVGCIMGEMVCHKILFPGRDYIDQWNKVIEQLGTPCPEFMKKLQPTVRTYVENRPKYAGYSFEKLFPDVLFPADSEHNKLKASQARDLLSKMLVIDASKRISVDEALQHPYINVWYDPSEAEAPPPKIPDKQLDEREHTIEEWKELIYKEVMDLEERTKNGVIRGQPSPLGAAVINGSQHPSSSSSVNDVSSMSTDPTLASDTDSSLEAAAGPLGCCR
quantity.measured: residual activity (%)
Answers are plain numbers, in %.

Solved entries:
COc1cc2ncnc(Nc3ccc(Oc4ccccc4)cc3)c2cc1OC :: 91.8
O=C1NC(=O)c2c1c1c3ccccc3[nH]c1n1cncc21 :: 83.9
O=C1Nc2ccc(Br)cc2/C1=C\c1cc2c([nH]1)CCCC2 :: 107

I need residual activity for every entry listed below, if you could help.
1. CN(C)S(=O)(=O)c1ccc2c(c1)/C(=C/c1cc3c([nH]1)CCCC3)C(=O)N2
2. Ic1cccc(CSc2nnc(-c3ccncc3)o2)c1
3. COc1ccc(S(=O)(=O)N(CCO)c2ccccc2CN(C)C/C=C/c2ccc(Cl)cc2)cc1

1: 91.1; 2: 84.7; 3: 104

----------
biological target: TAOK1 (human) (UniProt Q7L7X3); test: radiometric filter-binding kinase assay, Kinase HotSpot; conditions: compound 0.5 µM; ATP 10 µM
Sequence (Q7L7X3 whole entry, looked up): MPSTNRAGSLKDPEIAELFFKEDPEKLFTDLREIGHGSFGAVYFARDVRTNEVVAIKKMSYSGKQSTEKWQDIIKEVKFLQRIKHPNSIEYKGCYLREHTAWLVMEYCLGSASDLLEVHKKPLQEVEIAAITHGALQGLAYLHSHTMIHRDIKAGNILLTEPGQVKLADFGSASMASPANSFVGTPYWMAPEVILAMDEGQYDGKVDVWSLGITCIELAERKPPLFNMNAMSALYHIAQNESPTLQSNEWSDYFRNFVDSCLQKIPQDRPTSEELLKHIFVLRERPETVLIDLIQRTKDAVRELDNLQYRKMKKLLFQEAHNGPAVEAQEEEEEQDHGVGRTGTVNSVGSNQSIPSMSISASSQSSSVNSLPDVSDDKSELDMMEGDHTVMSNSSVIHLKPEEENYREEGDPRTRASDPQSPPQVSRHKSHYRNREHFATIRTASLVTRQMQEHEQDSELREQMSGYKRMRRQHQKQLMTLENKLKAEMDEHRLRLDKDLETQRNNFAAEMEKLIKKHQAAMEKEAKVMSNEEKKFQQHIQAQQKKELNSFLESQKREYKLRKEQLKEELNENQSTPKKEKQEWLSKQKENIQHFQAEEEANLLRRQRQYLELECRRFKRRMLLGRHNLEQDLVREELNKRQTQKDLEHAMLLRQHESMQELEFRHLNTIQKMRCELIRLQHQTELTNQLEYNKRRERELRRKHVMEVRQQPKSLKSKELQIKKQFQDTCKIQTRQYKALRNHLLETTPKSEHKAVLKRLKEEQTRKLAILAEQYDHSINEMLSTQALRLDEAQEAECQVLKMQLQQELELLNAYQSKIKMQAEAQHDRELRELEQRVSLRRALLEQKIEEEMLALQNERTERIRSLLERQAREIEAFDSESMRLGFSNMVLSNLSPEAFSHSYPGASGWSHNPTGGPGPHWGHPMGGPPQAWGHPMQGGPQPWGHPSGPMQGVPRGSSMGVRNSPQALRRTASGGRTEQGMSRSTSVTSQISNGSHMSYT
Field: residual activity. Provide a value for each of the compounds that follow.

Previously resolved entries follow.
O=C(c1cc2cc(O)ccc2[nH]1)c1cc2cc(O)ccc2[nH]1 :: 85.6%
CN(C)S(=O)(=O)c1ccc2c(c1)/C(=C/c1cc3c([nH]1)CCCC3)C(=O)N2 :: 85.8%

Items follow; give residual activity for each.
1. CC(C)(C)c1cc(C=C(C#N)C#N)cc(Br)c1O
2. c1ccc2c(-c3ccncc3)c[nH]c2c1
3. COc1ccc2c(c1)c(C1=C(c3c[nH]c4ccccc34)C(=O)NC1=O)cn2CCCN(C)C
4. N#Cc1c[nH]c2c[nH]/c(=N\Cc3cccnc3)cc2/c1=N\c1ccc(F)c(Cl)c1
5. NC(=O)c1cccc(-c2cc(Nc3ccc(OC(F)(F)F)cc3)ncn2)c1
6. COc1cc2ncnc(Nc3ccc(Oc4ccccc4)cc3)c2cc1OC
7. COc1ccc(C(=O)Nc2sc3c(c2C(N)=O)CCCC3)cc1OC
8. Cc1nc(-c2ccccc2)c(-c2ccncc2)o1

1. 97.9%
2. 88.4%
3. 99.5%
4. 89.9%
5. 92.9%
6. 105%
7. 95.5%
8. 98.5%

Value wanted: residual activity (TAOK1 (human) (UniProt Q7L7X3)) of entry "CN(C)c1ccc(/C=C2\C(=O)Nc3ccccc32)cc1"
94.7%

----------
tested on: MKNK1 (human), Q9BUB5 [T385D; 165-205 del]; assay: radiometric filter-binding kinase assay, Kinase HotSpot; conditions: compound 0.5 µM; ATP 10 µM
Sequence (Q9BUB5 whole entry, looked up, stated change not applied): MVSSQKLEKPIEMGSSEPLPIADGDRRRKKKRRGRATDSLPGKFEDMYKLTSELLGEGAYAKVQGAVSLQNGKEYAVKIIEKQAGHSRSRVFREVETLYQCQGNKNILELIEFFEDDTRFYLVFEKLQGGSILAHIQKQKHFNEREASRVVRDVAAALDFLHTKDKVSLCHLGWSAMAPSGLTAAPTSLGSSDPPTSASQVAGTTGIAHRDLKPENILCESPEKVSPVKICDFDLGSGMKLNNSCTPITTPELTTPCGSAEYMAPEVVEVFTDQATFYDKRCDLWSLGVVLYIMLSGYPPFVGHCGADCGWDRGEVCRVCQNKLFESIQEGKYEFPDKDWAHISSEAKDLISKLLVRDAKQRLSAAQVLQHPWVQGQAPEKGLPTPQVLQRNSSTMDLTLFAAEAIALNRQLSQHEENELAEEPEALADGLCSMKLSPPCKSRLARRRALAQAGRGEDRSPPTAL
quantity.measured: residual activity (%)
Answers are plain numbers, in %.

In the examples that follow, each entry is paired with its recorded residual activity.
CC[n+]1c(/C=C/N(C)c2ccccc2)n(-c2ccccc2)c2ccc(-c3nc4ccccc4s3)cc21 :: 102
CCN(CC)C(=O)c1ccc(Nc2nc(OCC3CCCCC3)c3nc[nH]c3n2)cc1 :: 97.5
Cc1cncc2cccc(S(=O)(=O)N3CCCN(C(=O)CN)C[C@H]3C)c12 :: 90.5
COc1cc2ncnc(Nc3cccc(Cl)c3)c2cc1OC :: 80.8
CCOc1cc2ncnc(Nc3cccc(Br)c3)c2cc1OCC :: 46

Would you mind giving residual activity for every compound in the list below?
1. Cc1cc(Nc2nc(-c3ccccc3)nc3ccccc23)n[nH]1
2. Clc1ccc(Nc2nnc(Cc3ccncc3)c3ccccc23)cc1
3. Nc1cccc(-c2cc3c(Oc4cccc(O)c4)ncnc3[nH]2)c1
4. Oc1cccc(-c2nc(N3CCOCC3)c3oc4ncccc4c3n2)c1
5. O=C1NC(=O)/C(=C\c2ccc3nccnc3c2)S1
6. Cn1cnc2cc3c(Nc4cccc(Br)c4)ncnc3cc21

1: 93.5; 2: 98.5; 3: 87.6; 4: 102; 5: 96.5; 6: 39.9

src = the kinase profiling compilation of Christmann-Franck et al. (2016)
